Source: PubChem BioAssay (NCI)

tested on: RXF 393 renal; assay: NCI tumour cell line growth inhibition, 48 h
Decision: TGI >= 20 µM yields Criterion met, all other cases yield Criterion not met.

Example cases with answers are listed next.
COc1cc(O)c2c(=O)c(OC)c(-c3ccc(OC)c(O)c3)oc2c1	Criterion met
COc1cc(C2c3cc4c(cc3[C@@H](Nc3ccccc3)C3COC(=O)[C@H]23)OCO4)cc(OC)c1O (some centres not stated)	Criterion not met
Cc1cccc(NC2=C(Cl)C(=O)c3nc(C)ccc3C2=O)c1	Criterion not met
COc1cccc2c1O/C(=C\c1ccc([N+](=O)[O-])s1)C2=O	Criterion met
CNc1nc(N)nc(Nc2ccc(I)cc2)c1N=O	Criterion met

IN: Assess whether reported TGI for NC(=O)c1cc(I)ccc1NC(=O)/C=C/c1ccccc1 sits at 20 µM or higher.
OUT: Criterion met

IN: Assess whether reported TGI for Cc1cc(C)nc(NC(=S)Nc2ccc([N+](=O)[O-])cc2)c1 sits at 20 µM or higher.
OUT: Criterion met

IN: Assess whether reported TGI for CC(C)(C)OC(=O)NC(CSSCC(NC(=O)OC(C)(C)C)C(=O)O)C(=O)O (configuration not stated) sits at 20 µM or higher.
OUT: Criterion met

IN: Assess whether reported TGI for CC1=C(C(=O)Nc2ccccc2)C(c2ccc(Cl)c(Cl)c2)C(C(=O)Nc2ccccc2)=C(C)N1 sits at 20 µM or higher.
OUT: Criterion met

IN: Assess whether reported TGI for [N-]=[N+]=CC(=O)OC(CCl)CCl sits at 20 µM or higher.
OUT: Criterion met

IN: Assess whether reported TGI for Cc1ccc2c(c1)c1ccc3c(c1n2C)C(=O)C=CC3=O sits at 20 µM or higher.
OUT: Criterion not met

IN: Assess whether reported TGI for CN(Cc1cnc2nc(N)nc(N)c2n1)c1ccc(C(=O)N[C@@H](CCS(=O)(=O)O)C(=O)O)cc1 sits at 20 µM or higher.
OUT: Criterion not met

IN: Assess whether reported TGI for CNc1cc2oc(=O)cc(C)c2cc1C sits at 20 µM or higher.
OUT: Criterion met

IN: Assess whether reported TGI for O=c1c2c(no[n+]2[O-])c2ccccc2n1-c1ccccc1 sits at 20 µM or higher.
OUT: Criterion not met

IN: Assess whether reported TGI for CCN(Cc1c(F)cccc1OC)c1ccc(CO)c(Cl)c1 sits at 20 µM or higher.
OUT: Criterion met

IN: Assess whether reported TGI for CCOC(=O)CNC(=O)NC12CC3CC(CC(C3)C1)C2 sits at 20 µM or higher.
OUT: Criterion met

IN: Assess whether reported TGI for O=C(Nc1nc(-c2c[nH]c3ccccc23)cs1)c1n[nH]c(=O)c2ccccc12 sits at 20 µM or higher.
OUT: Criterion met

* * *

test system: UACC-257 melanoma; assay: NCI tumour cell line growth inhibition, 48 h
Metric: TGI

As a guide, the following entries are already answered.
CC(C)(CO)CNc1nc(N)nc(Cl)c1/C=N/O	> 100 µM
COc1ccc(CC(N)=O)cc1OC	> 580 µM
COc1cc(C=O)ccc1O	> 100 µM
O=C(O)C(O)C(O)C(O)C(O)CO (stereo unspecified)	> 100 µM
O=C(CC(=O)Nc1ccccc1)NNC(Sc1ccccc1)c1cc(N=Nc2ccc(Br)cc2)ccc1O (stereo unspecified)	> 10 µM

Note: attention shifts to another entry.
IN: Entry under review: CCCN(CCC)c1c([N+](=O)[O-])cc(C(=O)N(CC)CC)cc1[N+](=O)[O-] . Reported TGI?
OUT: 43.3 µM

* * *

system: SF-295 CNS; assay: NCI tumour cell line growth inhibition, 48 h
Assignment: determine reported TGI for the given compounds.

As a guide, the following entries are already answered.
O=C(c1ccccc1)c1ccc2c(c1)NC(=O)c1ccccc1SSc1ccccc1C(=O)N2	> 100 µM
OCCCc1ccc2c(c1)[C@H](CO)[C@@H](c1ccc(O)cc1)O2	> 100 µM

// each listed compound needs a value for TGI
1. O=S(=O)(OI(OI(OS(=O)(=O)C(F)(F)F)c1ccccc1)c1ccccc1)C(F)(F)F
2. CC12c3ccccc3C(OC=O)(c3ccccc31)C1(C)c3ccccc3C2(OC=O)c2ccccc21
3. O=c1[nH]c(O)c(C=Nc2ccc(-c3nc4ccccc4o3)cc2)c(=O)[nH]1

OUT:
1. > 100 µM
2. > 100 µM
3. 68.9 µM

* * *

tested on: BT-549 breast; assay: NCI tumour cell line growth inhibition, 48 h; in the data active = GI50 below about 0.43 µM; inactive = the rest
Your reply should match one of these outcome classes. active, inactive

IN: Answer briefly: the call reported for COc1cc(/C=C2\CCCCC3=C2N=C2SC(C)=CN2C3c2cc(OC)c(OC)c(OC)c2)cc(OC)c1OC (centres undefined) in this assay.
OUT: inactive

IN: Answer briefly: the call reported for CCCCCCn1c(-c2ccc(C(=O)O/N=C(\N)c3ccc4c(c3)OCO4)cc2)nc(-c2ccccc2)c1-c1ccccc1 in this assay.
OUT: inactive

IN: Answer briefly: the call reported for CNCCCNc1ccnc2cc(Cl)ccc12 in this assay.
OUT: inactive

IN: Answer briefly: the call reported for COc1cc2c(cc1OCCCN1CCN(CCCOc3cc4c(cc3OC)C(=O)N3CC(F)(F)C[C@H]3C=N4)CC1)N=C[C@@H]1CC(F)(F)CN1C2=O in this assay.
OUT: inactive

IN: Answer briefly: the call reported for COC(=O)/C=C/c1cc(OC(C)=O)c2c(c1)C(C(=O)OC)C(c1ccc(OC(C)=O)c(OC(C)=O)c1)O2 (centres undefined) in this assay.
OUT: active

IN: Answer briefly: the call reported for COc1ccc(-c2c(C#N)c(N3CCOCC3)nc3[nH]c(=S)[nH]c(=S)c23)cc1OC in this assay.
OUT: inactive

IN: Answer briefly: the call reported for NNc1ncnc2nc[nH]c12 in this assay.
OUT: inactive

IN: Answer briefly: the call reported for Cc1cccc(NC2=C(Cl)C(=O)c3nc(C)ccc3C2=O)c1 in this assay.
OUT: inactive

IN: Answer briefly: the call reported for O=c1[nH]c(-c2cccc(F)c2)cc2cc(F)ccc12 in this assay.
OUT: inactive

* * *

tested on: MDA-MB-231 breast; assay: NCI tumour cell line growth inhibition, 48 h
Metric: TGI

// each listed compound needs a value for TGI
1. O=C1CSC2(CC(/C=C/c3cccs3)=NN2c2cccc(S(=O)(=O)O)c2)N1c1nc2ccccc2s1 (stereo unspecified)
2. O=C1/C(=C/c2ccc(Cl)cc2)CCCc2ccccc21

OUT:
1. > 100 µM
2. 39.7 µM

// each listed compound needs a value for TGI
1. O=c1[nH]c(-c2cccc(F)c2)cc2cc(F)ccc12
2. CSc1nc2c(c(N(C)C)n1)C(O)n1c(nc3ccccc31)S2 (stereo unspecified)
3. [N-]=[N+]=CC(=O)OC(CCl)CCl
4. O=C(O)c1cccc(S(=O)(=O)NN2C(=O)CSC2c2ccc(Cl)cc2Cl)c1 (stereo unspecified)
5. CNc1[nH]c(=S)nc2sc3c(c12)CCCC3
6. CCc1n[nH]c(=O)n1-c1ccc2ccccc2c1

OUT:
1: > 100 µM; 2: > 100 µM; 3: > 100 µM; 4: > 100 µM; 5: > 75 µM; 6: > 100 µM

* * *

tested on: UO-31 renal; assay: NCI tumour cell line growth inhibition, 48 h
Decision: TGI >= 6 µM yields criterion met, all other cases yield criterion not met.

O=S(=O)(OI(OI(OS(=O)(=O)C(F)(F)F)c1ccccc1)c1ccccc1)C(F)(F)F	criterion met
CN(C)Cc1cc(C(=O)/C=C/c2ccc([N+](=O)[O-])cc2)cc(CN(C)C)c1O	criterion met
Cc1cccc(NC2=C(Cl)C(=O)c3nc(C)ccc3C2=O)c1	criterion not met
CCCCCCn1c(-c2ccc(C(=O)O/N=C(\N)c3ccc4c(c3)OCO4)cc2)nc(-c2ccccc2)c1-c1ccccc1	criterion not met
COC(=O)c1ccccc1CC1Cc2cccc(C)c2C1=O (stereo not given)	criterion met
C=CCn1c(=O)ccn(/C(=C/C(=O)OCC)C(=O)OCC)c1=O	criterion met
NCCCn1c2c(c3ccc([N+](=O)[O-])cc3c1=O)C(=O)c1cc(I)ccc1-2	criterion not met
Cc1nc2c(Br)cc(Br)cc2c(=O)n1-c1nnc(-c2cccc(Cl)c2Cl)c(N)n1	criterion met

IN: Assess whether reported TGI for O=C1C(=Nc2ccc(Nc3ccccc3)cc2)Oc2ccccc21 sits at 6 µM or higher.
OUT: criterion not met

IN: Assess whether reported TGI for CCOC(=O)Cc1csc(Nc2ccccc2[N+](=O)[O-])n1 sits at 6 µM or higher.
OUT: criterion met

IN: Assess whether reported TGI for Nc1c(S(=O)(=O)c2ccc(Cl)cc2)c2nc3ccccc3nc2n2ccnc12 sits at 6 µM or higher.
OUT: criterion met

IN: Assess whether reported TGI for O=C1C=C(Nc2ccc(Cl)cc2C(=O)c2ccccc2)c2ccccc2C1=O sits at 6 µM or higher.
OUT: criterion met

IN: Assess whether reported TGI for COc1ccc(/C=C\c2cc(OC)c(OC)c(OC)c2)cc1OCC(=O)O sits at 6 µM or higher.
OUT: criterion met

IN: Assess whether reported TGI for O=c1c2c(no[n+]2[O-])c2ccccc2n1-c1ccccc1 sits at 6 µM or higher.
OUT: criterion met

IN: Assess whether reported TGI for O=c1[nH]c(O)c(C=Nc2ccc(-c3nc4ccccc4o3)cc2)c(=O)[nH]1 sits at 6 µM or higher.
OUT: criterion met

IN: Assess whether reported TGI for CCOC(=O)Nc1c(C)nc2ccccn12 sits at 6 µM or higher.
OUT: criterion met

IN: Assess whether reported TGI for CSC[C@H](NC(=O)COc1cccc2cnccc12)C(=O)NC(Cc1ccccc1)C(O)C(=O)N1CSC[C@H]1C(=O)NC(C)(C)C (stereo not given in full) sits at 6 µM or higher.
OUT: criterion met

IN: Assess whether reported TGI for CC[C@]1(O)C[C@H]2CN(CCc3c([nH]c4ccccc34)C(C(=O)OC)(c3cc4c(cc3OC)N(C)[C@H]3[C@@](O)(C(=O)OC)[C@H](OC(C)=O)[C@]5(CC)[C@@H]6C[C@@H]6CN6CC[C@]43[C@@H]65)C2)C1 (stereo not given in full) sits at 6 µM or higher.
OUT: criterion met

IN: Assess whether reported TGI for O=C(NCCCl)O/N=C/c1cccnc1 sits at 6 µM or higher.
OUT: criterion met

IN: Assess whether reported TGI for CC(=O)N/C(=C\c1ccccc1/C=C(\NC(C)=O)c1nc2cc(C)c(C)cc2[nH]1)c1nc2cc(C)c(C)cc2[nH]1 sits at 6 µM or higher.
OUT: criterion met
